- TEST_DETAILS: Highest soluble concentration in DMSO
- Type: physicochemical
- COND: organic solvent or mixture
MEASUREMENT_LABEL: solubility (µg/mL)
State just the number; it will be interpreted in µg/mL.

## Task What value of solubility has been recorded for this entry: CC1=C(/C=C/C(C)=C/C=C/C(C)=C/C(=O)OCCNC(=O)c2cccnc2)C(C)(C)CCC1 [Compound (1a), 2-(nicotinamido)-ethyl retinoate]
## Result 2000
